# Assay system: HIF1A
# Test description: HeLa, 100 nM transfected, 24 h, mean of 3
# Condition label: ASO
Bases are written 5' to 3'; sugars and linkages follow in the same order, as letters with counts (s phosphorothioate, o phosphodiester; PS: all linkages phosphorothioate). C may stand for cytosine or 5-methylcytosine; the collection does not tell. l = locked nucleic acid (LNA); d = 2'-deoxy (DNA)
Label true (1) when caspase activation (% of PBS control) is at or above 400; anything below gets false (0).

Look over these answered cases.
TGGCAAGCATCCTGTA (sugars ldlldddddddlddll, PS)	false (0)
GTTACTGCCTTCTTAC (sugars llldlddddddlddll, PS)	false (0)
GTTACTGCCTTCTTAC (sugars lllddddddddldldl, PS)	false (0)
ACTGCCTTCTTAC (sugars l3 d7 l1 d1 l1, PS)	false (0)

Input: Is reported caspase activation (% of PBS control) greater than or equal to 400 here: TGGCAAGCATCCTGTA (sugars llddlddddddlldll, PS)
Output: true (1)

Input: Same read-out for GGCAAGCATCCTG (sugars l1 d1 l2 d8 l1, PS) ?
Output: true (1)

Input: Follow-up item: GTTACTGCCTTCTTAC (sugars l3 d1 l1 d8 l3, PS)
Output: false (0)

Input: Another: GTTACTGCCTTCT (sugars l3 d7 l1 d1 l1, PS)
Output: false (0)

Input: Can you handle TTACTGCCTTCTT (sugars l1 d1 l2 d8 l1, PS) next?
Output: false (0)

Input: And what about the sequence GTTACTGCCTTCTTAC (sugars l4 d7 l3 d1 l1, PS) ?
Output: true (1)

Input: // query: TGGCAAGCATCCTGTA (sugars l1 d1 l2 d11 l1, PS)
Output: false (0)

----------
# Assay system: HIF1A
# Test description: HeLa, 100 nM transfected, 24 h, mean of 3
# Condition label: ASO
Bases are written 5' to 3'; sugars and linkages follow in the same order, as letters with counts (s phosphorothioate, o phosphodiester; PS: all linkages phosphorothioate). C may stand for cytosine or 5-methylcytosine; the collection does not tell. l = locked nucleic acid (LNA); d = 2'-deoxy (DNA)
Quick rule for you: caspase activation (% of PBS control) at 300 or higher means 1, lower means 0.

TGGCAAGCATCCTGTA (sugars ldddldddddddldll, PS)	0
TTACTGCCTTCTT (sugars l2 d8 l3, PS)	0
GGCAAGCATCCTG (sugars l4 d8 l1, PS)	1
GTTACTGCCTTCTTAC (sugars lddlldddddddlddl, PS)	0
GTTACTGCCTTCTTAC (sugars l1 d1 l3 d8 l3, PS)	1
GTTACTGCCTTCTTAC (sugars l4 d7 l1 d3 l1, PS)	0

Input: Record TGGCAAGCATCCTGTA (sugars ldlldddddddldddl, PS) ; criterion: caspase activation (% of PBS control) no lower than 300. Met?
Output: 0

Input: Next sequence up: ACTGCCTTCTTAC (sugars l1 d1 l1 d7 l3, PS)
Output: 0

----------
# Assay system: HIF1A
# Test description: HeLa, 100 nM transfected, 24 h, mean of 3
# Condition label: ASO
Bases are written 5' to 3'; sugars and linkages follow in the same order, as letters with counts (s phosphorothioate, o phosphodiester; PS: all linkages phosphorothioate). C may stand for cytosine or 5-methylcytosine; the collection does not tell. l = locked nucleic acid (LNA); d = 2'-deoxy (DNA)
Give yes (1) when the value for caspase activation (% of PBS control) is at least 200. Give no (0) when it is less.

Input: API: above_or_equal(metric=caspase activation (% of PBS control), cutoff=200) for item TGGCAAGCATCCTGTA (sugars l2 d9 l1 d1 l3, PS)
Output: yes (1)

Input: What do you have for TGGCAAGCATCCTGTA (sugars lddllddddddlddll, PS) ?
Output: yes (1)

Input: Cool, now TGGCAAGCATCCTGTA (sugars l1 d10 l2 d1 l2, PS)
Output: yes (1)

Input: Quick one: GTTACTGCCTTCTTAC (sugars ldlddddddddllddl, PS)
Output: no (0)

Input: Subsequent entry: TGGCAAGCATCCTGTA (sugars l1 d1 l3 d6 l5, PS)
Output: yes (1)

Input: Check GTTACTGCCTTCTTAC (sugars l5 d6 l1 d3 l1, PS) too.
Output: yes (1)

Input: How about TGGCAAGCATCCTGTA (sugars l1 d1 l2 d7 l5, PS) ?
Output: yes (1)

Input: Would you mind doing TGGCAAGCATCCTGTA (sugars l2 d1 l1 d8 l4, PS) as well?
Output: yes (1)

Input: Could you do the same for GTTACTGCCTTCTTAC (sugars ldldlddddddldddl, PS) , please?
Output: yes (1)

Input: Same read-out for TGGCAAGCATCCT (sugars l1 d11 l1, PS) ?
Output: no (0)

Input: What would you report for GTTACTGCCTTCTTAC (sugars ldlldddddddllddl, PS) ?
Output: yes (1)

----------
# Assay system: HIF1A
# Test description: HeLa, 100 nM transfected, 24 h, mean of 3
# Condition label: ASO
Bases are written 5' to 3'; sugars and linkages follow in the same order, as letters with counts (s phosphorothioate, o phosphodiester; PS: all linkages phosphorothioate). C may stand for cytosine or 5-methylcytosine; the collection does not tell. l = locked nucleic acid (LNA); d = 2'-deoxy (DNA)
Observable: caspase activation (% of PBS control)
// return a plain number; no unit text

CAAGCATCCTGTA (sugars lddlddddddldl, PS)	100
GTTACTGCCTTCTTAC (sugars l3 d9 l1 d1 l2, PS)	188
GTTACTGCCTTCTTAC (sugars lddlldddddddldll, PS)	240
TACTGCCTTCTTA (sugars l2 d10 l1, PS)	152
ACTGCCTTCTTAC (sugars ldldddddddldl, PS)	208

Input: // query caspase activation (% of PBS control) value for entry TGGCAAGCATCCTGTA (sugars l3 d1 l1 d7 l4, PS)
Output: 377

Input: For GTTACTGCCTTCTTAC (sugars lddlddddddddlddl, PS) then?
Output: 112

----------
# Assay system: HIF1A
# Test description: HeLa, 100 nM transfected, 24 h, mean of 3
# Condition label: ASO
Bases are written 5' to 3'; sugars and linkages follow in the same order, as letters with counts (s phosphorothioate, o phosphodiester; PS: all linkages phosphorothioate). C may stand for cytosine or 5-methylcytosine; the collection does not tell. l = locked nucleic acid (LNA); d = 2'-deoxy (DNA)
caspase activation (% of PBS control) for assorted sequences

Solved cases below.
ACTGCCTTCTTAC (sugars l1 d1 l1 d9 l1, PS)	188
TGGCAAGCATCCTGTA (sugars l3 d9 l1 d1 l2, PS)	416
CAAGCATCCTGTA (sugars l2 d9 l2, PS)	189
TGGCAAGCATCCTGTA (sugars lldllddddddddldl, PS)	418
GTTACTGCCTTCTTAC (sugars l1 d10 l5, PS)	350
TGGCAAGCATCCTGTA (sugars lddllddddddlldll, PS)	388
GTTACTGCCTTCT (sugars l4 d6 l1 d1 l1, PS)	221
GTTACTGCCTTCTTAC (sugars lldlddddddddldll, PS)	139

Input: Find the recorded caspase activation (% of PBS control) belonging to GTTACTGCCTTCTTAC (sugars l1 d10 l2 d2 l1, PS) and report it.
Output: 134

Input: What about this sequence? TGGCAAGCATCCTGTA (sugars llddldddddddlldl, PS)
Output: 341

Input: Same question for GTTACTGCCTTCTTAC (sugars l5 d8 l1 d1 l1, PS) please.
Output: 457

----------
# Assay system: HIF1A
# Test description: HeLa, 100 nM transfected, 24 h, mean of 3
# Condition label: ASO
Bases are written 5' to 3'; sugars and linkages follow in the same order, as letters with counts (s phosphorothioate, o phosphodiester; PS: all linkages phosphorothioate). C may stand for cytosine or 5-methylcytosine; the collection does not tell. l = locked nucleic acid (LNA); d = 2'-deoxy (DNA)
Assign TRUE whenever caspase activation (% of PBS control) does not fall below 200; assign FALSE whenever it does.

Recorded results for 5 sequences are shown here.
GCAAGCATCCTGT (sugars l1 d1 l1 d7 l3, PS)	TRUE
TACTGCCTTCTTA (sugars ldldddddddldl, PS)	TRUE
GTTACTGCCTTCTTAC (sugars lldldddddddldddl, PS)	FALSE
GCAAGCATCCTGT (sugars l2 d1 l1 d6 l3, PS)	TRUE
TGGCAAGCATCCTGTA (sugars ldddlddddddldlll, PS)	TRUE

Input: Is the recorded value of caspase activation (% of PBS control) equal to or greater than 200 for this sequence? GGCAAGCATCCTG (sugars l2 d8 l1 d1 l1, PS)
Output: TRUE

Input: // next record TTACTGCCTTCTT (sugars l1 d1 l2 d7 l2, PS)
Output: FALSE

Input: Follow-up item: GTTACTGCCTTCTTAC (sugars l5 d7 l2 d1 l1, PS)
Output: TRUE

Input: Query TGGCAAGCATCCTGTA (sugars lldlldddddddlldl, PS) next
Output: TRUE

Input: CAAGCATCCTGTA (sugars l1 d1 l2 d7 l2, PS) ?
Output: FALSE
